Target: T1R1/T1R3 receptor (Felis catus, UniProt E3UMS2)
Assay: cell-based
Type: cell-based
Conditions: + Alanine; Table 17
Documented Max resp ΔF/F +Alanine across a set of compounds
Reply: number alone, nothing else.

A selection of reference data follows.
compound: O=C(CN1C(=O)C(=O)N(Cc2ccccc2)C1=O)c1ccccc1
measurement.name: Max resp ΔF/F +Alanine
measured.value: 1.3
--
compound: O=C(Nc1ccccc1Br)N[C@@H]1c2ccccc2C[C@@H]1O (stereo in doubt)
measurement.name: Max resp ΔF/F +Alanine
measured.value: 0.3
--
compound: CC1CCCC(NC(=O)c2ccc3c(c2)OCO3)C1C (stereo not shown)
measurement.name: Max resp ΔF/F +Alanine
measured.value: 0.225
--
compound: CCC(CC)NC(=O)c1ccc2c(c1)OCCO2
measurement.name: Max resp ΔF/F +Alanine
measured.value: 0.3125
--
compound: COC(=O)C(NC(=O)/C=C/c1cccs1)C(C)C (stereo not shown)
measurement.name: Max resp ΔF/F +Alanine
measured.value: 0.1175

Exercise: Please report Max resp ΔF/F +Alanine for the following compound: COc1ccc(C(=O)NC(C)c2ccccc2)cc1C (stereo not shown)
Solution: 0.51

Exercise: For the compound CCC(CC)NC(=O)c1ccc(C)c(C)c1 [3,4-dimethyl-N-(pentan-3-yl)benzamide] , report Max resp ΔF/F +Alanine.
Solution: 1.2150

Exercise: Fill in reported Max resp ΔF/F +Alanine for this entry: O=C(NCCc1ccccc1)C(=O)NCc1cccnc1
Solution: 0.3750

Exercise: Using known records, supply Max resp ΔF/F +Alanine for CCCC(C)NC(=O)c1ccc(OC)c(C)c1 (stereo not shown)
Solution: 1.5650
